Provide the recorded TGI for the entries that follow.
System: PC-3 prostate
Assay: NCI tumour cell line growth inhibition, 48 h

Which value of TGI has been reported for COC(=O)CC1(O)C(/C=C/c2ccccc2)C(C(=O)OC)C(=O)C(C(=O)OC)C1C(=O)OC (configuration not stated) in the records?
> 100 µM

Suppose we examine the compound COC(=O)/C(=C\c1cn(C(C)=O)c2ccccc12)P(=O)(OC)OC ; what TGI value has been reported?
39.8 µM

Give its TGI value. Item: CCOC(=O)C1=NN(c2ccccc2)C2=CC(C)=NN(C)C(=S)N21
> 100 µM

Data request, read-out TGI, for CC(C)(C)c1cc(C(=O)/C=C/c2ccc3c(c2)CCO3)cc(C(C)(C)C)c1O
4.8 µM

Need TGI, item CC(=O)c1c[nH]cc1CO
> 10 µM

What measured TGI goes with COCCNC(=O)c1ccc(-c2nc3ccc4[nH]ncc4c3c3c2CCCC3)cc1 ?
> 100 µM

Query (compound): O=Cc1ccc(O)c2ncccc12 ; field requested: TGI
> 46.6 µM

Please report the recorded TGI for CC1SC(=O)SC1C (configuration not stated) .
> 100 µM

May I ask what TGI has been recorded for Cc1nn(C(=O)Cc2ccccc2)c2c1C(c1ccccc1[N+](=O)[O-])SC(N)=N2 (configuration not stated) ?
> 100 µM

# query: TGI of entry CCCCCCCCNC(=S)/N=C/c1c(O)c2ccccc2oc1=O
28.5 µM

# query: TGI of entry [O-]c1c[n+](CC[n+]2cc([O-])on2)no1
> 100 µM

Any idea what TGI was measured for N#Cc1nc2cc(F)c(F)cc2nc1-c1ccc(Cl)cc1 ?
20.2 µM
